TGT: CDK2/Cyclin A (Homo sapiens, UniProt P24941)
ASSAY_NAME: Inhibition of CDK2/Cyclin A Retinoblastoma Kinase Activity
Type: biochemical
PROTOCOL_CONDITIONS: read-out: % inhibition of CDK2 (@ 0.05 μM), compound at 0.05 μM
I'd appreciate it if you could supply inhibition at 0.05 µM values for the items below.
Express your answer in %, writing the number without its unit.

# query: inhibition at 0.05 µM | item CC(O)CNCCCS(=O)(=O)N1CCC(Nc2nc(N)c(C(=O)c3c(F)cccc3F)s2)CC1 (centres unmarked) | system: CDK2/Cyclin A (Homo sapiens, UniProt P24941) 79

# query: inhibition at 0.05 µM | item `Nc1nc(NC2CCN(S(=O)(=O)CCCNCCC3CCOCC3)CC2)sc1C(=O)c1c(F)cccc1F` | system: CDK2/Cyclin A (Homo sapiens, UniProt P24941) 85

# query: inhibition at 0.05 µM | item `Nc1nc(NC2CCN(S(=O)(=O)CCCNc3cc(O)c4ccccc4n3)CC2)sc1C(=O)c1c(F)cccc1F` | system: CDK2/Cyclin A (Homo sapiens, UniProt P24941) 93

# query: inhibition at 0.05 µM | item `Nc1nc(NC2CCN(S(=O)(=O)CCCNCCCO)CC2)sc1C(=O)c1c(F)cccc1F` | system: CDK2/Cyclin A (Homo sapiens, UniProt P24941) 75

# query: inhibition at 0.05 µM | item `CN(C)CCCS(=O)(=O)N1CCC(Nc2nc(N)c(C(=O)c3c(F)cccc3F)s2)CC1` | system: CDK2/Cyclin A (Homo sapiens, UniProt P24941) 78

# query: inhibition at 0.05 µM | item `Nc1nc(NC2CCN(S(=O)(=O)CCCNCC3(O)CCCCC3)CC2)sc1C(=O)c1c(F)cccc1F` | system: CDK2/Cyclin A (Homo sapiens, UniProt P24941) 87

# query: inhibition at 0.05 µM | item `NC(=O)[C@@H]1CCCN1CCCS(=O)(=O)N1CCC(Nc2nc(N)c(C(=O)c3c(F)cccc3F)s2)CC1` | system: CDK2/Cyclin A (Homo sapiens, UniProt P24941) 80

# query: inhibition at 0.05 µM | item NC(=O)C1CCCN(CCCS(=O)(=O)N2CCC(Nc3nc(N)c(C(=O)c4c(F)cccc4F)s3)CC2)C1 (centres unmarked) | system: CDK2/Cyclin A (Homo sapiens, UniProt P24941) 80

# query: inhibition at 0.05 µM | item `CC(=O)N1CCN(CCCS(=O)(=O)N2CCC(Nc3nc(N)c(C(=O)c4c(F)cccc4F)s3)CC2)CC1` | system: CDK2/Cyclin A (Homo sapiens, UniProt P24941) 81

# query: inhibition at 0.05 µM | item `Nc1nc(NC2CCN(S(=O)(=O)CCCNc3ccc4ccccc4n3)CC2)sc1C(=O)c1c(F)cccc1F` | system: CDK2/Cyclin A (Homo sapiens, UniProt P24941) 67

# query: inhibition at 0.05 µM | item `CN(CCCS(=O)(=O)N1CCC(Nc2nc(N)c(C(=O)c3c(F)cccc3F)s2)CC1)CC(N)=O` | system: CDK2/Cyclin A (Homo sapiens, UniProt P24941) 76

Numbers sourced from patent US20050101595A1.
